- assay comment: Cytotoxicity on Hep G2 cells
- Assay type: cell-based
- protocol conditions: human
pIC50: −log10 of the molar value.
Each entry below lists one item and its recorded pIC50 value.
observation type: pIC50

{"molecule": "O=C(Nc1ccccc1Br)N[C@@H]1CCN(c2ccc(C(F)(F)F)cn2)C1 [SB-705498, reference compound]", "readout number": 4.69}
{"molecule": "COc1cc(CNC(=O)NCc2ccc(C(F)(F)F)cc2)c(Br)cc1OCC(O)CO (racemic) [Compound 6d]", "readout number": 4.15}
{"molecule": "COc1cc(CNC(=O)NCc2ccc(C(F)(F)F)cc2)c(Cl)cc1OCC(O)CO (racemic) [Compound 6c]", "readout number": 4.28}

---

Assay system vanilloid TRPV1 receptor (Rattus norvegicus, UniProt O35433); read-out recorded as pKi.
pKi: −log10 of the molar value.

{"molecule": "COc1cc(CNC(=O)NCc2ccc(C(F)(F)F)cc2)c(-c2ccccc2)cc1OCC(O)CO (stereo not shown)", "measurement target": "vanilloid TRPV1 receptor (Rattus norvegicus, UniProt O35433)", "pKi": 6.56}
{"molecule": "COc1cc(CNC(=O)NCc2ccc(C(F)(F)F)cc2)c(Cl)cc1OCC(O)CO (racemic)", "measurement target": "vanilloid TRPV1 receptor (Rattus norvegicus, UniProt O35433)", "pKi": 7.22}
{"molecule": "COc1cc(CNC(=O)NCc2ccc(C(F)(F)F)cc2)c(-c2ccc(Cl)cc2)cc1OC[C@H](O)CO", "measurement target": "vanilloid TRPV1 receptor (Rattus norvegicus, UniProt O35433)", "pKi": 6.93}
{"molecule": "COc1cc(CNC(=O)NCc2ccc(C(F)(F)F)cc2)c(Br)cc1OCCO", "measurement target": "vanilloid TRPV1 receptor (Rattus norvegicus, UniProt O35433)", "pKi": 6.82}

---

Each entry below lists one item and its recorded IC50 value.
- measurement target: TRPV1 (Rattus norvegicus)
- Construct: Ca^2+ Fluorescence Measurements in Cultured Rat Trigeminal Ganglia; endogenous in cells
- assay comment: Ca2+ fluorescence measurements in cultured rat trigeminal ganglia (capsaicin-evoked [Ca2+]i mobilization)
- protocol conditions: 30 nM capsaicin, rat trigeminal neuron cells; read-out: IC50 of inhibiting capsaicin-evoked [Ca2+]i mobilization
observation type: IC50 (nM)

{"compound": "COc1cc(CNC(=O)NCc2ccc(C(F)(F)F)cc2)c(Cl)cc1OC[C@H](O)CO [(R)-(−)6c]", "observation type": "IC50", "censoring qualifier": "=", "readout number": 7}
{"compound": "COc1cc(CNC(=O)NCc2ccc(C(F)(F)F)cc2)c(-c2ccccc2)cc1OCC(O)CO (stereo not shown)", "observation type": "IC50", "censoring qualifier": ">", "readout number": 1000}
{"compound": "COc1cc(CNC(=O)NCc2ccc(C(F)(F)F)cc2)c(Br)cc1OC[C@@H](O)CO [(S)-(+)6d]", "observation type": "IC50", "censoring qualifier": ">", "readout number": 1000}
{"compound": "COc1cc(CNC(=O)NCc2ccc(C(F)(F)F)cc2)c(Br)cc1OC[C@H](O)CO [(R)-(−)6d]", "observation type": "IC50", "censoring qualifier": "=", "readout number": 53}

---

- measurement target: TRPV1 (Rattus norvegicus, UniProt O35433)
- Construct: Ca^2+ Fluorescence Measurements in Cultured Rat Trigeminal Ganglia; endogenous in cells
- Sequence (O35433 whole entry): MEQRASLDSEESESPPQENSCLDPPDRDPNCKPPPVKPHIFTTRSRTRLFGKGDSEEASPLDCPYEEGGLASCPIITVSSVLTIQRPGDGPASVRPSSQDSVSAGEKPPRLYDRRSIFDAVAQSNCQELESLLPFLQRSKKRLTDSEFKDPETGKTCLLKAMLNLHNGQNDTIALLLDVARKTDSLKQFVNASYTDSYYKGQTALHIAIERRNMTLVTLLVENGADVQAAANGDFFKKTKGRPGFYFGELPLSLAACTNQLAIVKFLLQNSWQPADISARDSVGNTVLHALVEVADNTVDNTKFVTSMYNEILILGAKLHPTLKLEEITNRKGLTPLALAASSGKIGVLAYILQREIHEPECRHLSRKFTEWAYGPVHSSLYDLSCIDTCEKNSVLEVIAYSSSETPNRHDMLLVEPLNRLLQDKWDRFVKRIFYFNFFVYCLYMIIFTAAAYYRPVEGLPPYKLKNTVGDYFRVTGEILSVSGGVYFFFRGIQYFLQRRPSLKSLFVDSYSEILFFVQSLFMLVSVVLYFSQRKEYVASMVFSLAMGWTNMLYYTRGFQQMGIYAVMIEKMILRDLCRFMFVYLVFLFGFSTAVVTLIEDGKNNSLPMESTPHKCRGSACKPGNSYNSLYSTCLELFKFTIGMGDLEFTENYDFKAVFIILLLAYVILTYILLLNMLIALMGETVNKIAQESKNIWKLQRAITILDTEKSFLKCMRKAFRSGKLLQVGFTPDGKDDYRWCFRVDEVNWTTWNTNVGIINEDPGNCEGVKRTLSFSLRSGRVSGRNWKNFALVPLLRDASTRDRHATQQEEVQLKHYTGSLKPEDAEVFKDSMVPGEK
- assay comment: Ca2+ fluorescence measurements in cultured rat trigeminal ganglia (capsaicin-evoked [Ca2+]i mobilization)
- protocol conditions: 30 nM capsaicin, rat trigeminal neuron cells; read-out: IC50 of inhibiting capsaicin-evoked [Ca2+]i mobilization
pIC50: −log10 of the molar value.
observation type: pIC50

{"compound": "COc1cc(CNC(=O)NCc2ccc(C(C)(C)C)cc2)c(Cl)cc1OCCO", "measurement target": "TRPV1 (Rattus norvegicus, UniProt O35433)", "readout number": 6.07}
{"compound": "COc1cc(CNC(=O)NCc2ccc(C(F)(F)F)cc2)c(Cl)cc1OCC(O)CO (racemic)", "measurement target": "TRPV1 (Rattus norvegicus, UniProt O35433)", "readout number": 7.99}
{"compound": "COc1cc(CNC(=O)NCc2ccc(C(C)(C)C)cc2)c(Cl)cc1OCCCO", "measurement target": "TRPV1 (Rattus norvegicus, UniProt O35433)", "readout number": 6.30}
{"compound": "COc1cc(CNC(=O)NCc2ccc(C(F)(F)F)cc2)c(Br)cc1OCCO", "measurement target": "TRPV1 (Rattus norvegicus, UniProt O35433)", "readout number": 6.92}
